Molecular target: fMet-Leu-Phe receptor (Homo sapiens)
Sequence (P21462 whole entry): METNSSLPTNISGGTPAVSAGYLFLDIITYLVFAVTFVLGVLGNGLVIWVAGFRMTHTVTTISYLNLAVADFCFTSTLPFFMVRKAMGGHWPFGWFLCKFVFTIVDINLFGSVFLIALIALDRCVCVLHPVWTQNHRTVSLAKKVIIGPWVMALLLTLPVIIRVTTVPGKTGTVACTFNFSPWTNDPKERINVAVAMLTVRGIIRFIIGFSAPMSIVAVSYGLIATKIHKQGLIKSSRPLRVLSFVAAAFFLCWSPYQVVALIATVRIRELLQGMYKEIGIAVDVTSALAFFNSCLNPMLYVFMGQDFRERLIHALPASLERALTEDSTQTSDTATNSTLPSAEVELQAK
Test: Biased agonist activity at human FPR1 expressed in FlpIn-CHO cells assessed as stimulation of ERK1/2 phosphorylation measured after 7 mins by Alphascreen assay
Format: cell-based
Conditions: read-out: pEC50 (converted)
OUTCOME MEASURE: EC50

1) COc1cccc(Cc2cc(C)nn(C(C)C(=O)Nc3ccccc3Cl)c2=O)c1 (stereo not drawn); > 100 µM
2) COc1ccccc1Cc1cc(C)nn(CC(=O)Nc2ccc(Cl)cc2F)c1=O; > 100 µM
3) COc1ccccc1Cc1cc(C)nn(CC(=O)Nc2ccc(C#N)cc2)c1=O; > 100 µM
